Settings: 308.15 K; 101.33 kPa; Liquid
attribute measured: speed of sound (m/s)
Report only the number, with the unit m/s understood.

**Q:** Entry under review: "CCO" . Reported speed of sound?
**A:** 1112

**Q:** Entry under review: "CCCCO" . Reported speed of sound?
**A:** 1211

**Q:** Entry under review: "CCc1ccccc1" . Reported speed of sound?
**A:** 1276

**Q:** Entry under review: "CCCO" . Reported speed of sound?
**A:** 1182

----------
Conditions: 298.15 K; 101.33 kPa; Liquid
± gives the expanded uncertainty stated by the source.
For each entry below, report its speed of sound value.
The reply should consist of the numeric value with the unit placed after it.

**Q:** Entry under review: "CCO" . Reported speed of sound?
**A:** 1160 ± 10 m/s

**Q:** Entry under review: "CCCO" . Reported speed of sound?
**A:** 1213 ± 10 m/s

**Q:** Entry under review: "CCc1ccccc1" . Reported speed of sound?
**A:** 1312 ± 11 m/s

**Q:** Entry under review: "CCCCO" . Reported speed of sound?
**A:** 1238 ± 10 m/s
